Collected pIC50 values appear next to each entry.
System: Trypanosoma brucei
testDescription: Antitrypanosomal activity against Trypanosoma brucei 427 after 48 hrs by luciferase assay
Assay type: functional, organism-based
measurementSetup: Trypanosoma brucei, 427, 48 h
pIC50: −log10 of the molar value.
measurementType: pIC50

[[record]]
compound = "CO[C@@H]1C(=O)CC[C@]2(CO2)[C@]1(O)/C(C)=C/CC=C(C)C (relative stereo)"
subjectoftest = "Trypanosoma brucei"
measurementtype = "pIC50"
reportedvalue = 4.38

[[record]]
compound = "CO[C@@H]1[C@]2(CC[C@H](O[Si](C)(C)C(C)(C)C)[C@@]1(O)/C(C)=C/CC=C(C)C)CO2 (relative stereo)"
subjectoftest = "Trypanosoma brucei"
measurementtype = "pIC50"
reportedvalue = 6.55

[[record]]
compound = "CO[C@@H]1[C@@H](OC(=O)c2ccccc2)CC[C@]2(CO2)[C@]1(O)/C(C)=C/CC=C(C)C (relative stereo)"
subjectoftest = "Trypanosoma brucei"
measurementtype = "pIC50"
reportedvalue = 5.38

[[record]]
compound = "CO[C@H]1C(=O)[C@]2(CC[C@@H]1OC(=O)c1ccccc1)CO2 (relative stereo)"
subjectoftest = "Trypanosoma brucei"
measurementtype = "pIC50"
reportedvalue = 4.33

[[record]]
compound = "O=C(O[C@@H]1CC[C@]2(CO2)[C@@H](O)[C@H]1O)c1ccccc1 (relative stereo)"
subjectoftest = "Trypanosoma brucei"
measurementtype = "pIC50"
reportedvalue = 6.14

[[record]]
compound = "CO[C@@H]1[C@H](O[Si](C)(C)C(C)(C)C)CC[C@]2(CO2)[C@@]1(O)/C(C)=C/CC=C(C)C (relative stereo)"
subjectoftest = "Trypanosoma brucei"
measurementtype = "pIC50"
reportedvalue = 6.40

[[record]]
compound = "O=C(O[C@H]1CC[C@]2(CO2)[C@H](O)[C@@H]1O)c1ccccc1 (relative stereo)"
subjectoftest = "Trypanosoma brucei"
measurementtype = "pIC50"
reportedvalue = 3.49


From: ChEMBL document CHEMBL1157176
